B1: library; numbered along this chain (parent)
chain: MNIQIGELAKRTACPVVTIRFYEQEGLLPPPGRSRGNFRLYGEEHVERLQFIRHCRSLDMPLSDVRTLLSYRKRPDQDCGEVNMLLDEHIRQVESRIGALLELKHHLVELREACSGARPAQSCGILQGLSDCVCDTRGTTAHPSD

Variants of: B1
Assay: sfGFP reporter fluorescence (15 h) (µM FITC); higher = higher leak
Settings: library round: Round 0; ligand: none

{"MUTATION_ID": "P143H", "sfGFP reporter fluorescence": 0.0585}
{"MUTATION_ID": "M60K", "sfGFP reporter fluorescence": 0.0605}
{"MUTATION_ID": "P30C", "sfGFP reporter fluorescence": 0.0599}
{"MUTATION_ID": "D131E", "sfGFP reporter fluorescence": 0.059}
{"MUTATION_ID": "L58Q", "sfGFP reporter fluorescence": 0.0596}
{"MUTATION_ID": "L27I", "sfGFP reporter fluorescence": 0.0596}
{"MUTATION_ID": "F21T", "sfGFP reporter fluorescence": 0.0601}
{"MUTATION_ID": "L62T", "sfGFP reporter fluorescence": 0.0607}
{"MUTATION_ID": "R39E", "sfGFP reporter fluorescence": 0.0614}
{"MUTATION_ID": "D135V", "sfGFP reporter fluorescence": 0.059}
{"MUTATION_ID": "L62E", "sfGFP reporter fluorescence": 0.0607}
{"MUTATION_ID": "L28G", "sfGFP reporter fluorescence": 0.0588}
{"MUTATION_ID": "F21C", "sfGFP reporter fluorescence": 0.0599}
{"MUTATION_ID": "L58D", "sfGFP reporter fluorescence": 0.0599}
